Origin of values: PubChem BioAssay (Tox21)

assay name: qHTS assay to identify small molecule agonists of the progesterone receptor (PR) signaling pathway - cell viability counter screen (AID 1346799); further: nearly all actives have a fitted effect of over 45% in size
setup conditions: PR-UAS-bla HEK293T viability, CellTiter-Glo luminescence, 16 h; series mostly up to 92.4 µM
Results filed as inconclusive are left out. The source made the active and inactive calls. The call rests on the fitted dose curve.
Classes used: active, inactive

1) COC(=O)/C=C(\C)OP(=O)(OC)OC    inactive
2) S=C=Nc1ccccc1    inactive
3) O=C(Nc1ccc(F)cc1F)c1cccnc1Oc1cccc(C(F)(F)F)c1    inactive
4) [O-][Cl+3]([O-])([O-])O    inactive
5) Cc1ccccc1OP(=O)(Oc1ccccc1C)Oc1ccccc1C    inactive
6) CC(=O)C(Cl)C(=O)N(C)C (centres undefined)    inactive
7) CC(C)N(C(=O)CCl)c1ccccc1    inactive
8) NC1CCC(CC2CCC(N)CC2)CC1 (centres undefined)    active
9) Cc1c([N+](=O)[O-])cc2c(c1[N+](=O)[O-])C(C)(C)CC2(C)C    inactive
10) C=Cc1cccc(CCl)c1    inactive
11) CCC(C)Br (centres undefined)    inactive
12) CCC[CH2][Sn]([CH2]CCC)([CH2]CCC)[O][Sn]([CH2]CCC)([CH2]CCC)[CH2]CCC    active
13) CCc1cccc(C)c1N(C(=O)CCl)[C@@H](C)COC    inactive
14) c1cc[n+]2c(c1)-c1cccc[n+]1CC2    inactive
